B1: RSPH3 (parent)
chain: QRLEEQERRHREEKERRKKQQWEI

Variants of: B1
Assay: protein stability index of a GFP-peptide fusion (GPS, HEK-293T) (PSI 1-6); higher = more stable;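 further: lentivirally expressed fusions sorted by FACS into six bins by GFP to DsRed ratio, PSI derived from sequencing read proportions per bin multiplied by bin number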
Conditions: c terminus: a fixed tail appended
# protein stability index per entry
Please reply with the value in numeric form only.

// worked examples, protein stability index included
>>> df
             sequence_input  experimental_result
0  QRLEEQERRHREEKEMRKKQQWEI                 5.04
1  QRLEEQERRHREEKERRTKQQWEI                 4.68

Please look at the following variant next.
Consider the variant shown here: QRLEQQERRHREEKERRKKQQWEI What is its recorded protein stability index? 5.01

Ref: the supplement of paper PMC10567573
